- Test system: γ-secretase activity
- test-description: Screening for γ-secretase-modulating activity in SKN neuroblastoma cells carrying APP swedish mutant
- Type: cell-based
- experimental-parameters: read-out: IC50 on the γ-secretase activity, Activity range
pIC50: −log10 of the molar value.
Known pIC50 of a selection of compounds

These recorded examples may help you get a feel for the data.
>>> df
                            compound_string    test_value
0  CNC(=O)c1ccc(COc2cc(CC(=O)O)cc(-c3ccc(C(F)(F)F)cc3)c2)cc1  3.52 to 4.00
1  O=C(O)Cc1cc(OCc2ccc(C(F)(F)F)cc2)cc(-c2ccc(C(F)(F)F)cc2)c1        > 6.00
2  O=C(O)Cc1cc(OCc2ccccc2)cc(-c2cccc(O)c2)c1  4.00 to 5.00
3  O=C(O)Cc1cc(OCc2ccc(C(=O)N3CCOCC3)cc2)cc(-c2ccc(C(F)(F)F)cc2)c1  4.00 to 5.00

Recorded pIC50 for `CN(C)S(=O)(=O)c1ccc(COc2cc(CC(=O)O)cc(-c3ccc(C(F)(F)F)cc3)c2)cc1` , please? 5.00 to 6.00

###

Known IC50 of a selection of compounds
- Tested on: γ-secretase activity
- test-description: Screening for γ-secretase-modulating activity in SKN neuroblastoma cells carrying APP swedish mutant
- Assay type: cell-based
- experimental-parameters: read-out: IC50 on the γ-secretase activity, Activity range

These recorded examples may help you get a feel for the data.
>>> df
                                   compound  readout_kind    test_value
0  Cc1ccc(-c2cc(CC(=O)O)cc(OCc3ccccc3)c2)cc1 [XXXV]          IC50  10 to 100 µM
1  CCCC(C(=O)O)c1cc(OCC2CC2)cc(-c2ccc(C(F)(F)F)cc2)c1 (stereo not shown) [XL]          IC50    1 to 10 µM
2  O=C(O)Cc1cc(OCc2ccccc2)cc(-c2ccc(Cl)c(Cl)c2)c1 [XII]          IC50    1 to 10 µM

API: value(readout=IC50, system=γ-secretase activity) for record O=C(O)Cc1cc(OCc2ccccc2)cc(-c2ccc(Cl)cc2)c1 [XXIII] 1 to 10 µM

// next record O=C(O)Cc1cc(OCc2ccc(S(=O)(=O)N3CCCC3)cc2)cc(-c2ccc(C(F)(F)F)cc2)c1 [VI] 1 to 10 µM

###

- Test system: γ-secretase activity
- test-description: Screening for γ-secretase-modulating activity in SKN neuroblastoma cells carrying APP swedish mutant
- Assay type: cell-based
- experimental-parameters: read-out: IC50 on the γ-secretase activity, Activity range
Known IC50 of a selection of compounds

These recorded examples may help you get a feel for the data.
In [3]: df
Out[3]:
                            compound_string    test_value
0  O=C(O)Cc1cc(OCC2CCOCC2)cc(-c2ccc(C(F)(F)F)cc2)c1  10 to 100 µM
1  COc1ccc(-c2cc(CC(=O)O)cc(OCc3ccccc3)c2)cc1  10 to 100 µM
2  O=C(O)Cc1cc(OCc2ccccc2)cc(-c2ccc(C(F)(F)F)cc2)c1    1 to 10 µM
3  O=C(O)Cc1cc(OCc2ccccc2)cc(-c2ccc(OC(F)(F)F)cc2)c1    1 to 10 µM
4  O=C(O)Cc1cc(OCc2cccc(Cl)c2)cc(-c2ccc(C(F)(F)F)cc2)c1    1 to 10 µM

Recorded IC50 for `O=C(O)Cc1cc(OCCc2ccccc2)cc(-c2ccc(C(F)(F)F)cc2)c1` , please? 1 to 10 µM

// next record `O=C(O)Cc1cc(OCc2ccccc2C(F)(F)F)cc(-c2ccc(C(F)(F)F)cc2)c1` 1 to 10 µM

// next record `CC(C)Oc1ccc(-c2cc(CC(=O)O)cc(OCc3ccccc3)c2)cc1` 10 to 100 µM

// next record `O=C(O)Cc1cc(OCc2ccc(OC(F)(F)F)cc2)cc(-c2ccc(C(F)(F)F)cc2)c1` 1 to 10 µM
